For each entry below, report its pIC50 value.
# targetOrTestSystem: Beta-lactamase OXA-48 (Klebsiella pneumoniae)
# Sequence (Q6XEC0 whole entry): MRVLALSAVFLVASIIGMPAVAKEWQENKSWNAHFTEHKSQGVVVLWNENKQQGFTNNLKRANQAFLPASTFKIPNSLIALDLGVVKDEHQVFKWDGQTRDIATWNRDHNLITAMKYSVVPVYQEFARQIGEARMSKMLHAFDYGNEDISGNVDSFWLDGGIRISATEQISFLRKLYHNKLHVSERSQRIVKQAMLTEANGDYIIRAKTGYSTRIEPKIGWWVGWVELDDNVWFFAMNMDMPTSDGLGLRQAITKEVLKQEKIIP
# protocolNotes: Inhibition of native signal containing Klebsiella pneumoniae OXA-48 using nitrocefin substrate pre-incubated for 5 mins before substrate addition
pIC50: −log10 of the molar value.

Ask: Which value of pIC50 has been reported for O=C(O)c1ccccn1 in the records?
Result: < 2.70

Ask: Same question for CC(=O)c1cccc(-c2ccncc2)c1 please.
Result: < 2.70

Ask: // next record c1ccc(-c2ccncc2)cc1
Result: < 2.70

Where do the numbers come from? From ChEMBL document CHEMBL3860021.
